# system_name: Phosphatidylinositol 4,5-bisphosphate 3-kinase catalytic subunit beta isoform (Homo sapiens)
# Sequence (P42338 whole entry, the tested form may be a part, canonical isoform): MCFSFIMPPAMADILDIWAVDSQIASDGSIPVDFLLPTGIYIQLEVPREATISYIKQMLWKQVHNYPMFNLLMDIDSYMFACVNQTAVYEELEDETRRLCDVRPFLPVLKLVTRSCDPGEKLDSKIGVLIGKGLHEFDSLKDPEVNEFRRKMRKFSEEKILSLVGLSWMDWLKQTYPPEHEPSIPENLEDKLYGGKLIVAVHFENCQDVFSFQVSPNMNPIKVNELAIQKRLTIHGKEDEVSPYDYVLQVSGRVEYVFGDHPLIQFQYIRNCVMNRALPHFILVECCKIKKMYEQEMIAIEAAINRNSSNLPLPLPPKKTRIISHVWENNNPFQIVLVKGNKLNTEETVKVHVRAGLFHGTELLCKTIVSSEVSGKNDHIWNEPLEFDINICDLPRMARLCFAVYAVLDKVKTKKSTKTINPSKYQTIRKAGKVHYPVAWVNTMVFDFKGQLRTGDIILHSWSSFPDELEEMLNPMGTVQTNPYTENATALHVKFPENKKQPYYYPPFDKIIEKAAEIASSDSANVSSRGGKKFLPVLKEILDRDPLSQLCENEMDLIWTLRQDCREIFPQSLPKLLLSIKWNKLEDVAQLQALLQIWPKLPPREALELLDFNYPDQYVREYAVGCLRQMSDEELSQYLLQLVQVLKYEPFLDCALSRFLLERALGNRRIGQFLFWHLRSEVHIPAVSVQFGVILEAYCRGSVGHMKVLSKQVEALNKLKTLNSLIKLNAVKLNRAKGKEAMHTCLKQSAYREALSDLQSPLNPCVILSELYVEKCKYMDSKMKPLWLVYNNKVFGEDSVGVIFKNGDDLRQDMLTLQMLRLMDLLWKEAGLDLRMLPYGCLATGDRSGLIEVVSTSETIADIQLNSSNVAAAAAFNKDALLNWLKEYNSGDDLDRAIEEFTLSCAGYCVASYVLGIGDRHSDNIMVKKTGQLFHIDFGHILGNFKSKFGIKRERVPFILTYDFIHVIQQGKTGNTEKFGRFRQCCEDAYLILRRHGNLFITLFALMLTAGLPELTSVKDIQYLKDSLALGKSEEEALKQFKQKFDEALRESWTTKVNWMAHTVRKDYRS
# measurement_protocol: Enzymatic Activity Assay : The activity of recombinant human PI3Kγ ((aa144-1102)-6His) and PI3Kα, β, δ (6-His(p110-p85α)) was determined by measuring the ADP level after phosphorylation of DiC8-PIP2 using a commercially available ADP-Glo™ kit from Promega. The assay was carried out in white low volume 384 well plates in a final volume of 14 μl at R.T. The assay conditions contained the following: 50 mM Tris buffer pH 7.4, 2.1 mM DTT, 3 mM MgCl2, 0.05% CHAPS, 20 μM ATP, 80 μM DiC8-PIP2 and 1.2 nM PI3Kα, β, γ or 0.6 nM PI3Kδ. Potential inhibitors were made up in DMSO and then diluted in the assay to give a final concentration of not exceeding 1% (v/v) DMSO. […] Routinely, inhibitors were pre-incubated with 3 μl of enzyme for 15 min prior to the addition of 2 μl substrate mixture for a further 60 min enzyme reaction. The phosphorylation was stopped with the addition of 3 μl ADP-Glo™ reagent (stop solution) followed by a 40 min incubation. Prior to detection 6 μl of ADP-Glo™ Kinase Detection Reagent was added and the plates were read in a micro plate reader using a Luminescence filter. All additions were followed by a short centrifugation step.
recorded_metric: pIC50
// returns pIC50 (minus log10 of molar concentration), number only

// pIC50 lookup, molecule = `CC[C@H](C)N1Cc2cc(-c3sc(Nc4cccc(N5CCCOC5=O)n4)nc3C)cc(S(=O)(=O)NC)c2C1=O` , result: 6.34
